All values here come from patent US6468979B1.

System: S. pneumoniae 1035
Assay: In vitro antibacterial activity (MIC), broth dilution micromethod
Type: cell-based, Streptococcus pneumoniae
Details: erythromycin-resistant strain; MHB with 5% horse serum, 37° C., 18 hours
Procedure: The minimum inhibitory concentrations (MIC), with respect to Gram-positive bacteria (erythromycin-sensitive and -resistant strains) and Gram-negative bacteria, were determined by means of the broth-scaler dilution micromethod in twin series [National Committee for Clinical Laboratory Standards, 1990; Methods for dilution antimicrobial susceptibility tests for bacteria that grow aerobically; Approved standards M7-A2-NCCLS, Villanova, Pa.], using Mueller Hinton Broth (MHB) as culture medium. […]
OBSERVABLE: MIC S. pneumoniae 1035 (µg/mL)
Respond with the bare value in µg/mL.

// known answers, use as guide
- CC[C@H]1OC(=O)[C@H](C)[C@@H](O[C@H]2C[C@@](C)(OC)[C@@H](O)[C@H](C)O2)[C@H](C)[C@@H](O[C@@H]2O[C@H](C)C[C@H](N(C)C)[C@H]2O)[C@](C)(O)C[C@@H](C)/C(=N\OCCNCCCCCCNCc2csc(-n3cncn3)n2)[C@H](C)[C@@H](O)[C@]1(C)O: 4
- CC[C@H]1OC(=O)[C@H](C)[C@@H](O[C@H]2C[C@@](C)(OC)[C@@H](O)[C@H](C)O2)[C@H](C)[C@@H](O[C@@H]2O[C@H](C)C[C@H](N(C)C)[C@H]2O)[C@](C)(O)C[C@@H](C)/C(=N\OCCN(C)CCCCCCNCc2csc(-n3cccn3)n2)[C@H](C)[C@@H](O)[C@]1(C)O: 0.0625
- CC[C@H]1OC(=O)[C@H](C)[C@@H](O[C@H]2C[C@@](C)(OC)[C@@H](O)[C@H](C)O2)[C@H](C)[C@@H](O[C@@H]2O[C@H](C)C[C@H](N(C)C)[C@H]2O)[C@](C)(O)C[C@@H](C)/C(=N\OCCNCCCCCCNCc2csc(-n3ccnc3)n2)[C@H](C)[C@@H](O)[C@]1(C)O: 4

// MIC S. pneumoniae 1035 lookup, molecule = CC[C@H]1OC(=O)[C@H](C)[C@@H](O[C@H]2C[C@@](C)(OC)[C@@H](O)[C@H](C)O2)[C@H](C)[C@@H](O[C@@H]2O[C@H](C)C[C@H](N(C)C)[C@H]2O)[C@](C)(O)C[C@@H](C)/C(=N\OCCN(C)CCCCCCNCc2csc(-n3ccnc3)n2)[C@H](C)[C@@H](O)[C@]1(C)O , result: 0.5

// MIC S. pneumoniae 1035 lookup, molecule = CC[C@H]1OC(=O)[C@H](C)[C@@H](O[C@H]2C[C@@](C)(OC)[C@@H](O)[C@H](C)O2)[C@H](C)[C@@H](O[C@@H]2O[C@H](C)C[C@H](N(C)C)[C@H]2O)[C@](C)(O)C[C@@H](C)/C(=N\OCCNCCCCCCNCc2csc(-n3cccn3)n2)[C@H](C)[C@@H](O)[C@]1(C)O , result: 1

----------
Tested on: Streptococcus pyogenes C203
Assay: In vivo therapeutic efficacy in experimental pulmonary infection in mice
Conditions: CD1 mice, single oral dose 1 hour after intranasal infection, death observed for 7 days, probit analysis
Classify: 1 when PD50 1 hour after infection is strictly less than 10 µmol/kg; 0 when PD50 1 hour after infection is not.

For orientation, consider the following solved cases.
* CC[C@H]1OC(=O)[C@H](C)[C@@H](O[C@H]2C[C@@](C)(OC)[C@@H](O)[C@H](C)O2)[C@H](C)[C@@H](O[C@@H]2O[C@H](C)C[C@H](N(C)C)[C@H]2O)[C@](C)(O)C[C@@H](C)/C(=N\OCCNCCCCCCNCc2csc(-c3cccs3)n2)[C@H](C)[C@@H](O)[C@]1(C)O [Compound 4] | 0
* CC[C@H]1OC(=O)[C@H](C)[C@@H](O[C@H]2C[C@@](C)(OC)[C@@H](O)[C@H](C)O2)[C@H](C)[C@@H](O[C@@H]2O[C@H](C)C[C@H](N(C)C)[C@H]2O)[C@](C)(O)C[C@@H](C)/C(=N\OCCN(C)CCCCCCNCc2csc(-n3cccn3)n2)[C@H](C)[C@@H](O)[C@]1(C)O [Compound 11] | 0
* CC[C@H]1OC(=O)[C@H](C)[C@@H](O[C@H]2C[C@@](C)(OC)[C@@H](O)[C@H](C)O2)[C@H](C)[C@@H](O[C@@H]2O[C@H](C)C[C@H](N(C)C)[C@H]2O)[C@](C)(O)C[C@@H](C)/C(=N\OCCNCCCCCCNCc2nc(-c3nccs3)cs2)[C@H](C)[C@@H](O)[C@]1(C)O [Compound 1] | 0

Kindly review the next compound as well.
## Task Item CC[C@H]1OC(=O)[C@H](C)[C@@H](O[C@H]2C[C@@](C)(OC)[C@@H](O)[C@H](C)O2)[C@H](C)[C@@H](O[C@@H]2O[C@H](C)C[C@H](N(C)C)[C@H]2O)[C@](C)(OC)C[C@@H](C)C(=O)[C@H](C)[C@@H](O)[C@]1(C)O [Clarithromycin, reference compound] : PD50 1 hour after infection beneath 10 µmol/kg, strictly?
## Result 1
